Assay: gradient 5% acetonitrile 3 min, to 50% in 2 min, to 85% in 15 min, held 3 min, 100 µL/min
Settings: column: Zorbax Extend-C18 2.1 x 50 mm; eluents: water / acetonitrile, 0.1% formic acid
Assign class by RP-LC retention time: not lower than 700 s means YES; lower than 700 s means NO.

Record excerpt, results attached:
| compound | assignedCategory |
| --- | --- |
| O=C(CN1CCCCC1c1nc(-c2ccc(F)cc2)no1)NC1CCCCC1 (stereo not drawn) | YES |
| CCN1CCc2nc(-c3ccc(F)cc3)n(CC(=O)N3CCCc4ccccc43)c(=O)c2C1 | NO |
| C=CCNS(=O)(=O)c1c(C)[nH]c(=O)[nH]c1=O | NO |
| O=C(Cc1c[nH]c2ccccc12)N1CCC(c2noc(C3CC3)n2)C1 (stereo not drawn) | YES |
| Cc1scc(CN2CCN(c3ccccn3)CC2)c1C | NO |
| COc1ccc(-n2cc(C(=O)Nc3ccc(SC)cc3)nn2)cc1 | YES |
| O=C(Cc1ccc(F)cc1)N1CCN(C(=O)c2nnn3c2COC(c2ccccc2)C3)CC1 (stereo not drawn) | YES |
| O=C(c1cccc(Nc2nc3ccccc3n3nnnc23)c1)N1CCN(c2ccccn2)CC1 | NO |

Prompt: Entry CCNC(=O)C1CCN(S(=O)(=O)c2ccc3c(c2)NC(=O)CO3)CC1 : is its RP-LC retention time no less than 700 s?
Response: NO

Prompt: Check COC(=O)c1ccc2c(=O)n(-c3ccc4c(c3)OCO4)c(N3CCN(c4ccccn4)CC3)nc2c1 too.
Response: NO

Prompt: Check O=C(Cn1nc2nc(N3CCCC3)ccn2c1=O)N1CCN(c2ccc(F)cc2)CC1 too.
Response: NO

Prompt: Check COC1=CC(=O)C[C@@H](C)C12Oc1c(Cl)c(OC)cc(OC)c1C2=O (stereo partly drawn) too.
Response: YES

Prompt: Check Nc1nc(S(=O)(=O)Cc2ccccc2)ns1 too.
Response: NO

Prompt: Check CN1CCCC1c1nc(C2CN(C(=O)c3n[nH]c(=O)c4ccccc34)C2)no1 (stereo not drawn) too.
Response: NO

Prompt: Check CCOc1ccccc1C(=O)N1CCN(S(=O)(=O)c2cc3c4c(c2)CCC(=O)N4CCC3)CC1 too.
Response: YES
